system: Glutamate NMDA receptor
experimentalProtocol: Tested for affinity by radioligand [3H]-TCP displacement from phencyclidine binding site (PCP) in rat homogenates
pKi: −log10 of the molar value.
outcomeMeasure: pKi

Short answer for c1ccc2sc(C3(N4CCCCC4)CCCCC3)cc2c1 : pKi was < 5.00

The measured pKi associated with Clc1ccc(CCNCCNC2(c3cc4ccccc4s3)CCCCC2)cc1Cl reads < 5.00

For reference, reported pKi for O=C(Cc1ccc(Cl)c(Cl)c1)NCCNC1(c2cc3ccccc3s2)CCCCC1 stands at < 5.00

Briefly, pKi measured for CCCNC1(c2cc3ccccc3s2)CCCCC1 : < 5.00

Input c1ccc2sc(C3(NCC4CC4)CCCCC3)cc2c1 . Output pKi: < 5.00

Lookup result for CCCCN(C)C1(c2cc3ccccc3s2)CCCCC1 ; measured pKi: < 5.00

compound CN(C)C1(c2cc3ccccc3s2)CCCCC1 , pKi observed: < 5.00

# pKi (compound: O=C1NCCN1C1(c2cc3ccccc3s2)CCCCC1 ) is < 5.00

For record c1ccc2sc(C3(NCC4CCC4)CCCCC3)cc2c1 the listed pKi is < 5.00

Summary for this compound, CCCN(CCC)C1(c2cc3ccccc3s2)CCCCC1 : pKi is < 5.00

Record summary for Clc1ccc(CCNC2(c3cc4ccccc4s3)CCCCC2)cc1Cl : reported pKi = < 5.00

Item: CCCN(CC)C1(c2cc3ccccc3s2)CCCCC1 | pKi: < 5.00

In plain terms, CNCCCCNC1(c2cc3ccccc3s2)CCCCC1 has a documented pKi of < 5.00
